Target: AIFΔ101 D489A/K518A (Homo sapiens, UniProt O95831 102-613, D489A;K518A)
Sequence (O95831 102-613 D489A/K518A): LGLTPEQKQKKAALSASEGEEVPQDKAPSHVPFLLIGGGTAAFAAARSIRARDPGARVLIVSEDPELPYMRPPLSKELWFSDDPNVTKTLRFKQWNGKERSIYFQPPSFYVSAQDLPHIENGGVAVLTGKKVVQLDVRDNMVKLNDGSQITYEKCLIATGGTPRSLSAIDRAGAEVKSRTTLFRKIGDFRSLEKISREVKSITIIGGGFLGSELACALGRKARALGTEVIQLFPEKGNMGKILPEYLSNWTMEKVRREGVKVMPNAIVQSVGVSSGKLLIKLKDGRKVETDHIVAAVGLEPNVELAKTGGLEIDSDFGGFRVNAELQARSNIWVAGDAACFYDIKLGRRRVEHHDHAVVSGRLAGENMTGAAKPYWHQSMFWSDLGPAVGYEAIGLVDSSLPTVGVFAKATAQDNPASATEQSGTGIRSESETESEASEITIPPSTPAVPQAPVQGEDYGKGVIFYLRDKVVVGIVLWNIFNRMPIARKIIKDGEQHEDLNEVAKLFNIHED
Experiment: ITC; binary; ITC: 50 mM potassium phosphate pH 7.4, 15 °C (25 °C with CypA); EMSA: same buffer, 25 °C, 30 min, 2% agarose; AFM on mica at room temperature
Settings: protein: recombinant; tags: N-terminal His6; blunt
recorded_metric: Kd (µM)
Give the quantity in µM, number only.

Item 15-bp dsDNA (dsDNA) DNA 1: GGTTAGTTATGCGCG DNA 2: CGCGCATAACTAACC has what recorded Kd?
0.5
